Where do the numbers come from? From patent US20210395344A1.

Assay Target: COVID S1 RBD Fc fusion (Antigen 1) (SARS-CoV-2), P0DTC2
Protocol Notes: phage ELISA
Assay Context: remark: other sources report otherwise
The entries below are paired with their reported ELISA fold over background (fold over background).
Quick one: just the number, no unit, thanks!

{"Binder": "1-3 (antibody, V domains shown) VH: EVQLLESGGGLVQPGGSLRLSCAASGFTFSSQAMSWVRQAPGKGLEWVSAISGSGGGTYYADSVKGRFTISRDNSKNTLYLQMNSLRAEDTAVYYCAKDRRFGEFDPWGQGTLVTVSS VL: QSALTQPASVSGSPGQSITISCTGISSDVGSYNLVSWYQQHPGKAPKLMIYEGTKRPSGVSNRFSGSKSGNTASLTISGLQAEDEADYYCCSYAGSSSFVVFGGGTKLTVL", "Measured": 1.8}
{"Binder": "1-32 (antibody, V domains shown) VH: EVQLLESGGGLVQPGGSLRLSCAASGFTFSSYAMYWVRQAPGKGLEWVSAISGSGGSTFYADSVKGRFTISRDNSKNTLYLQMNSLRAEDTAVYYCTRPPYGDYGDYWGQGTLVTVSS VL: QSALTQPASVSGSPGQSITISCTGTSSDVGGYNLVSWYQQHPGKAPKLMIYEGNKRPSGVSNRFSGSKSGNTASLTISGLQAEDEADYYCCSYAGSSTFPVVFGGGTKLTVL", "Measured": 1.5}
{"Binder": "1-28 (antibody, V domains shown) VH: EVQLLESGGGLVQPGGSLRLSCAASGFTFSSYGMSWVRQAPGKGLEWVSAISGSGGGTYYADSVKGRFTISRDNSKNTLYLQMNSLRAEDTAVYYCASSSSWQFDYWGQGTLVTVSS VL: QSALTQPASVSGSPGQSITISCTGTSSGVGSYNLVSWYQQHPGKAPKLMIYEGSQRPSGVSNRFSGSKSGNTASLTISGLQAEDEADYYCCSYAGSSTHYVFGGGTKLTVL", "Measured": 1.1}

# input Item under review: 1-4 (antibody, V domains shown) VH: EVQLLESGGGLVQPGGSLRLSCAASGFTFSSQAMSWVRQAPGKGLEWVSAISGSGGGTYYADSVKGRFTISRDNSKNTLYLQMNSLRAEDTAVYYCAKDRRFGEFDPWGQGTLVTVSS VL: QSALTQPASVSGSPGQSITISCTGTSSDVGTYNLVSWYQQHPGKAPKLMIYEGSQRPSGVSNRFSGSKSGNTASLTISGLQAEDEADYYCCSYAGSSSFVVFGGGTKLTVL . Reported ELISA fold over background (fold over background)?
# output 1.4

# input Lookup 1-30 (antibody, V domains shown) VH: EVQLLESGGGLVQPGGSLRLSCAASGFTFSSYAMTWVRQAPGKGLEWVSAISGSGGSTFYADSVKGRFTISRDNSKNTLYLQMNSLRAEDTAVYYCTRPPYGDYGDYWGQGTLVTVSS VL: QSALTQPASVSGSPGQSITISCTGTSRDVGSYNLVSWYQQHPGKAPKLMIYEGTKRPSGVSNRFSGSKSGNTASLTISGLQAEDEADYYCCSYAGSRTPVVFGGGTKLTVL
# output 1.7

# input Param item: 1-31 (antibody, V domains shown) VH: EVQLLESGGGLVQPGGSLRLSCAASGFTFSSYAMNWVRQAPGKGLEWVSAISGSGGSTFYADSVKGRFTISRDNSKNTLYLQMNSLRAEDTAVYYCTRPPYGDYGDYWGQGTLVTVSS VL: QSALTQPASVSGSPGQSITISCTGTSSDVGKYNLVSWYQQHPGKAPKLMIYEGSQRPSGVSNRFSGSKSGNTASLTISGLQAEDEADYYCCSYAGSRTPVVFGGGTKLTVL
# output 1.3
